Collected PBM binding z-score values appear next to each entry.
# System: RARa homodimer (NR concentration 270 nM)
# TEST: PBM binding z-score (relative to random genomic background probes); higher = stronger binding; sequences stand for … in GC…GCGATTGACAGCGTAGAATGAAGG
ASSAY_METRIC: PBM binding z-score

[[record]]
residue_codes = "ATCTCTAGGTACCCAAGTTCAGTGAATGCCGAAC"
readout_value = 0.262

[[record]]
residue_codes = "CCTACTGGGCCAAGGGTCATTGATTCCAATGCTC"
readout_value = 0.1

[[record]]
residue_codes = "GCATATAGGTAATACAGGGTGAAAGTCCGATTGT"
readout_value = 0.52

[[record]]
residue_codes = "TGAATGAGATTAAAGATCAGGGAACGTGGCGTCG"
readout_value = 0.0825

[[record]]
residue_codes = "CCGAGTTGGTTATGGGGCATTCAGGCAACGGTGA"
readout_value = 0.692

[[record]]
residue_codes = "CGAACTAGGTAATTGACAGGACAGTGAATAGTAA"
readout_value = 0.178

[[record]]
residue_codes = "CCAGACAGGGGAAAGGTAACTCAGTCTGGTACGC"
readout_value = -0.374

[[record]]
residue_codes = "GCTTGTTGATCAAGGTTAAGAAAGACTAAGCTAA"
readout_value = 0.254

[[record]]
residue_codes = "TGTGCTAGGTCAACGATGGTCAGCTAATCTGCTA"
readout_value = -0.241

[[record]]
residue_codes = "TCTTCTAGGTCAACGATGGTCAGCTAATCTGCTA"
readout_value = 1.21

[[record]]
residue_codes = "TAGCCTAGGTCATTGAGCCAGTATAGTACGCATC"
readout_value = -0.419

[[record]]
residue_codes = "CCTTACGGGTCACGGACAGGTTATAGCATTTGGA"
readout_value = 2.04

[[record]]
residue_codes = "GCTAGCAGGCCATATGGGTCACTCAATGACGGGC"
readout_value = -0.311

[[record]]
residue_codes = "TCTAGCAAGCCAGAGGGTCACTCAAGAGGTACGG"
readout_value = -0.908

[[record]]
residue_codes = "GATACAGGGTCAAGGCCAGAGGACGCGTATTGAT"
readout_value = 1.16

[[record]]
residue_codes = "CGAAGTAGGTCAGAACAGGACAGTGAAGGATGAT"
readout_value = 0.475

[[record]]
residue_codes = "CGAACTAGGTCGTTGACAGGACAGTGAATAGTAA"
readout_value = -0.436

[[record]]
residue_codes = "ACTAGCACGCCAAGTTTGGGTCACTCAAACAAAG"
readout_value = -0.534

[[record]]
residue_codes = "TTACCAAGGTGAGCTTAGGTCGTTGATCCAACTC"
readout_value = -0.83

[[record]]
residue_codes = "GCGACTGGGGAATCAGCAGGTTACCATAACTTAA"
readout_value = -0.219

[[record]]
residue_codes = "CGTCCAAGGCCATAGGAGGTCAGTGAAGACAGAT"
readout_value = -0.0451

[[record]]
residue_codes = "GGAACGAGGGCCAGTTGATAGCAGAGTTTGATGG"
readout_value = -1.03

[[record]]
residue_codes = "CAGCCTACGTCAGGGCCAGTATAGGAGGAACGTT"
readout_value = -0.296

[[record]]
residue_codes = "TCTATTAGTTGAAGGGCAACCAACGAGTCCGTTT"
readout_value = 1.55

[[record]]
residue_codes = "ACTATTAGTTGAGACGAGGGCAGCCGATAGGTTG"
readout_value = 0.445

[[record]]
residue_codes = "CCTATTAGTTGACCATAAGGGCTACCGAAGCTCG"
readout_value = 1.97

